Source: patent US9273058B2

target: CK1δ (Homo sapiens, UniProt P48730); experiment: CK1δ kinase assay (Caliper LabChip electrophoretic separation of fluoresceinated peptide substrate and product); assay type: biochemical; conditions: 200 pM CK1δ, 50 μM ATP, 1.5 μM peptide, 22 hours at room temperature; read-out: CK1δ IC50 range
Sequence (P48730 whole entry): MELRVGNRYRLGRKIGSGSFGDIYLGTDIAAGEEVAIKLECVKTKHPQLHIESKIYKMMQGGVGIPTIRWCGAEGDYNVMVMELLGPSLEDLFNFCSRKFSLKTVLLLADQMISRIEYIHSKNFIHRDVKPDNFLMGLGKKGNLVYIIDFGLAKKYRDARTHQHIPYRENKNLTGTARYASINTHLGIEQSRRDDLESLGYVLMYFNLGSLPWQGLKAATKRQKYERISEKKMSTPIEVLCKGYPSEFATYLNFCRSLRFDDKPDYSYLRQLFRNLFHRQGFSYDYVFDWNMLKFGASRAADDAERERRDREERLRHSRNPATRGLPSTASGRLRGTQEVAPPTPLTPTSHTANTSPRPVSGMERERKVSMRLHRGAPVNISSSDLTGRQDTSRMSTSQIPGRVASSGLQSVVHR
Would you mind telling me the reported IC50 of each entry?

# count of solved cases: 10
>>> data_value("CC(F)(F)C(C)(C)NC(=O)N1CCn2nc(-c3cccc(Cl)c3)c(C(N)=O)c2C1")
"0.01 to 10 nM"
>>> data_value("CC(C)(C)NC(=O)N1Cc2c(C(N)=O)c(-c3ccc(F)c(Cl)c3)nn2C(C(=O)NC2CC2)C1 (stereo not drawn) [Compound A23]")
"100 to 2000 nM"
>>> data_value("CC(C)(C)NC(=O)N1CCn2nc(-c3cccc4cnccc34)c(C(N)=O)c2C1")
"100 to 2000 nM"
>>> data_value("CC(C)(C)NC(=O)N1CCn2nc(-c3ccnc(F)c3)c(C(N)=O)c2C1")
"10 to 100 nM"
>>> data_value("CC(CF)(CF)NC(=O)N1CCn2nc(-c3ccc(F)c(Cl)c3)c(C(N)=O)c2C1")
"0.01 to 10 nM"
>>> data_value("CC1(NC(=O)N2Cc3c(C(N)=O)c(-c4ccc(Cl)c(Cl)c4)nn3C(CF)C2)CC(F)(F)C1 (stereo not drawn) [Compound A27]")
"0.01 to 10 nM"
>>> data_value("NC(=O)c1c(-c2ccc(Cl)c(Cl)c2)nn2c1CN(C(=O)N[C@H]1C[C@@H](OC(F)(F)F)C1)CC2")
"0.01 to 10 nM"
>>> data_value("CC1(C)CC(NC(=O)N2CCn3nc(-c4cccc(Cl)c4)c(C(N)=O)c3C2)C1")
"0.01 to 10 nM"
>>> data_value("CC1(C)CC(NC(=O)N2CCn3nc(-c4cccc(F)c4)c(C(N)=O)c3C2)CC(C)(C)N1")
"10 to 100 nM"
>>> data_value("NC(=O)c1c(-c2cccc(Cl)c2)nn2c1CN(C(=O)NC1CC(COC(F)F)C1)CC2 (single isomer, unassigned) [Compound 245]")
"0.01 to 10 nM"

# batch: return IC50 for each of the 2 compounds below
1. CC(C)(C)NC(=O)N1CCn2nc(-c3cn[nH]c3)c(C(N)=O)c2C1
2. NC(=O)c1c(-c2ccc(F)c(Cl)c2)nn2c1CN(C(=O)N[C@H]1C[C@H](OC(F)(F)F)C1)CC2

[A]
100 to 2000 nM
0.01 to 10 nM

# batch: return IC50 for each of the 3 compounds below
1. NC(=O)c1c(-c2cccc(Cl)c2)nn2c1CN(C(=O)NC13C4C5C1C1C3C4C51F)CC2 (stereo not drawn)
2. CC(C)(C)NC(=O)N1Cc2c(C(N)=O)c(-c3ccc(Cl)c(Cl)c3)nn2C(C(F)F)C1 (stereo not drawn) [Compound A32]
3. N#CC1(NC(=O)N2CCn3nc(-c4cccc(Cl)c4)c(C(N)=O)c3C2)CCC1

[A]
1. 0.01 to 10 nM
2. 0.01 to 10 nM
3. 0.01 to 10 nM

---

molecular target: CK1δ (Homo sapiens); assay: CK1δ kinase assay (Caliper LabChip electrophoretic separation of fluoresceinated peptide substrate and product); type: biochemical; settings: 200 pM CK1δ, 50 μM ATP, 1.5 μM peptide, 22 hours at room temperature; read-out: CK1δ IC50 range
pIC50: −log10 of the molar value.
Test readout: pIC50

# count of solved cases: 2
>>> data_value("CC1Cn2nc(-c3ccc(F)c(Cl)c3)c(C(N)=O)c2CN1C(=O)NC1(C)CC(F)(F)C1 (single isomer, unassigned) [Compound 344]")
"8.00 to 11.00"
>>> data_value("CC1CN(C(=O)NC(C)(C)C)Cc2c(C(N)=O)c(-c3cccc(Cl)c3)nn21 (stereo not drawn) [A8]")
"8.00 to 11.00"

[Q] Fill blank: measured pIC50 of the compound N#CC12C3C4C1C1C2C3C41NC(=O)N1CCn2nc(-c3ccc(F)c(Cl)c3)c(C(N)=O)c2C1 (stereo not drawn) [Compound A70] is ____.
[A] 8.00 to 11.00
